test system: HepG2; test: cytotoxicity call (relative viability < 0.9); details: 10 µM
Out of some 39,000 compounds screened, about 3,300 (8.5%) were called active. The sample holds actives, similar compounds and a random draw of the others, so the mix is not that of the screen.
Hi there, use one of these labels in your reply, thanks! true (active), false (inactive)

Nc1nc2c(ncn2COC(CO)CO)c(=O)[nH]1.O	false
C[C@H]1CN([C@@H](C)CO)C(=O)c2cc(-c3cncnc3)cnc2O[C@H]1CN(C)C(=O)CN1CCOCC1	false
C[C@@H]1CN([C@H](C)CO)C(=O)c2cc(NC(=O)Nc3ccc(C(F)(F)F)cc3)ccc2O[C@H]1CN(C)Cc1ccc(Cl)c(Cl)c1	true

Query: Per the assay record, what outcome was assigned to COc1cc(S(C)(=O)=O)ccc1Nc1nc2ccc(-c3ccc(NC(=O)[C@H](C)c4ccc(F)cc4)cc3)cn2n1 ?
Result: false

Query: Let us now turn to COC(=O)C[C@H]1CC[C@H]2[C@H](COc3ccc(NS(=O)(=O)c4ccccc4Cl)cc3C(=O)N2C)O1
Result: false

Query: Let us now turn to C[C@@H]1CN([C@H](C)CO)C(=O)c2cc(NC(=O)NC3CCCCC3)ccc2O[C@@H](C)CCCCO[C@H]1CN(C)C(=O)Nc1ccc(C(F)(F)F)cc1
Result: false

Query: Let us now turn to C[C@@H]1CN([C@H](C)CO)S(=O)(=O)c2ccc(C#CC3(O)CCCC3)cc2O[C@@H]1CN(C)C(=O)c1cccnc1
Result: false

Query: Let us now turn to OC[C@H]1CN(Cc2ccccc2)CCO1
Result: false

Query: Let us now turn to CCN1CCCC(OC(=O)C(c2ccccc2)c2ccccc2)C1.Cl (configuration not stated)
Result: false

Query: Let us now turn to C[C@H](CO)N1C[C@H](C)[C@H](CN(C)C(=O)Nc2cccc3ccccc23)Oc2ccc(NS(=O)(=O)c3cccs3)cc2CC1=O
Result: false

Query: Let us now turn to COc1ccc(C(=O)CC(=O)c2ccc(C(C)(C)C)cc2)cc1
Result: false

Query: Let us now turn to C[C@H]1OC(=O)CC[C@@H](O)/C=C/[C@@H](O)[C@@H]1O
Result: false

Query: Let us now turn to C[C@H](CO)N1C[C@H](C)[C@@H](CN(C)Cc2ccccc2)Oc2cc(C#CC(C)(C)O)ccc2S1(=O)=O
Result: false

Query: Let us now turn to C[C@H]1CN([C@@H](C)CO)C(=O)c2cc(NC(=O)Nc3ccc(C(F)(F)F)cc3)ccc2O[C@H]1CN(C)Cc1ccc(Cl)c(Cl)c1
Result: true

Query: Let us now turn to C[C@H](CO)N1C[C@H](C)[C@@H](CN(C)Cc2ccc(Cl)c(Cl)c2)Oc2ccc(NC(=O)Nc3ccc(F)cc3)cc2C1=O
Result: false

Query: Let us now turn to CC(C)=CCC/C(C)=C/CC1=C(C)C(=O)c2ccccc2C1=O
Result: false

Query: Let us now turn to NNC(=O)c1cccc(C(F)(F)F)n1
Result: false

###

system: HepG2; test: cytotoxicity call (relative viability < 0.9); details: 10 µM
The whole screen tested about 39,000 compounds, of which about 3,300 (8.5%) were called active. The sample as a whole holds a higher share of actives than the screen did.
Hi there, use one of these labels in your reply, thanks! active, inactive

Check out these entries, answers already filled in.
C[C@H]1CCCCO[C@H](CN(C)Cc2ccc(C(F)(F)F)cc2)[C@@H](C)CN([C@@H](C)CO)C(=O)c2cc(NC(=O)Nc3ccc(C(F)(F)F)cc3)ccc2O1	active
C[C@@H]1CCCCO[C@H](CN(C)Cc2ccc(C(F)(F)F)cc2)[C@H](C)CN([C@H](C)CO)C(=O)c2cc(NC(=O)Nc3ccc(C(F)(F)F)cc3)ccc2O1	active

Query: Per the assay record, what outcome was assigned to C[C@@H]1CN([C@@H](C)CO)C(=O)c2cc(NC(=O)Nc3ccccc3)ccc2O[C@@H](C)CCCCO[C@H]1CN(C)Cc1ccc(C(F)(F)F)cc1 ?
Result: inactive

Query: Let us now turn to C[C@@H]1CN([C@H](C)CO)C(=O)c2cc(NC(=O)Nc3ccc(C(F)(F)F)cc3)ccc2O[C@@H](C)CCCCO[C@@H]1CN(C)Cc1ccc(C(F)(F)F)cc1
Result: inactive
